System: HOP-92
Experiment: NCI tumour cell line growth inhibition, 48 h
The source made the active and inactive calls. Cut-off read from the data, not from the text of the source: active = GI50 up to about 1.1 µM and inactive = higher.
Outcome codes: Y = active, N = inactive

[
  {
    "COMPOUND": "CC1(C)OC2C(CCP(=O)(O)O)OC(c3nc(C(N)=O)cs3)C2O1 (stereo unspecified)",
    "ASSIGNED_LABEL": "N"
  },
  {
    "COMPOUND": "C#CCOCn1cnc2c(S)ncnc21",
    "ASSIGNED_LABEL": "N"
  },
  {
    "COMPOUND": "Cc1ccc(S(=O)(=O)N/N=C2\\CC3C4C=CC3C2C4)cc1 (stereo unspecified)",
    "ASSIGNED_LABEL": "N"
  },
  {
    "COMPOUND": "C#CC(O)/C=C/CCCCCCC#CC/C=C\\CC#CCCCCCC/C=C/C(O)C#C (stereo unspecified)",
    "ASSIGNED_LABEL": "N"
  },
  {
    "COMPOUND": "COc1cc(C2=NNC(=O)c3ccccc3N2c2nc(-c3cccs3)nc3ccc(Br)cc23)cc(OC)c1OC",
    "ASSIGNED_LABEL": "N"
  },
  {
    "COMPOUND": "COc1cc2c3c(c4ccc(OC)c(OC)c4c2cc1OC)CN1CCC[C@@H]1C3",
    "ASSIGNED_LABEL": "Y"
  },
  {
    "COMPOUND": "Cc1cc(C)c([S@@](=O)O[C@@H]2[C@H]3OC(C)(C)O[C@H]3O[C@@H]2[C@H]2COC(C)(C)O2)c(C)c1",
    "ASSIGNED_LABEL": "N"
  },
  {
    "COMPOUND": "Cc1ccc(N(C=O)c2c([N+](=O)[O-])cc([N+](=O)[O-])c3c2=[N+]([O-])CN=3)cc1",
    "ASSIGNED_LABEL": "N"
  },
  {
    "COMPOUND": "CCCCCCCCCCCCCCCCOC(=O)c1cc(O)cc(C(=O)OCCCCCCCCCCCCCCCC)c1",
    "ASSIGNED_LABEL": "N"
  },
  {
    "COMPOUND": "O=C1/C(=C/c2ccccc2Cl)COc2ccc(Br)cc21",
    "ASSIGNED_LABEL": "N"
  },
  {
    "COMPOUND": "Oc1ccccc1-c1cnnc(-c2ccccc2O)c1",
    "ASSIGNED_LABEL": "N"
  },
  {
    "COMPOUND": "N=C(N)N/N=C/c1c(-c2ccc(Cl)c(Cl)c2Cl)nc2sccn12",
    "ASSIGNED_LABEL": "N"
  },
  {
    "COMPOUND": "CC(C)(C)OC(=O)n1c(-c2ccccc2F)cc(=O)c2cc3c(cc21)OCO3",
    "ASSIGNED_LABEL": "N"
  },
  {
    "COMPOUND": "CCOC(=O)c1sc2c(c1OC(=O)c1cc(OC)c(OC)c(OC)c1)c(=O)n(-c1ccccc1)c(=S)n2-c1ccccc1",
    "ASSIGNED_LABEL": "N"
  },
  {
    "COMPOUND": "CCCCCCCSCC1C(=O)C23C(O)C1CCC2C12COC3(O)C(O)C1C(C)(C)CCC2O (stereo unspecified)",
    "ASSIGNED_LABEL": "N"
  },
  {
    "COMPOUND": "Cn1c2c(c3ccccc31)CCN(CCCCN1CCCCC1)C2=O",
    "ASSIGNED_LABEL": "N"
  },
  {
    "COMPOUND": "CC1(C)OC(=O)C(=Cc2ccc(O)cc2)C(=O)O1",
    "ASSIGNED_LABEL": "N"
  },
  {
    "COMPOUND": "O=C1CCC(Cc2ccc(Cl)cc2Cl)C(=O)N1 (stereo unspecified)",
    "ASSIGNED_LABEL": "N"
  },
  {
    "COMPOUND": "O=C(O)c1ccccc1CC1Cc2ccccc2C1=O (stereo unspecified)",
    "ASSIGNED_LABEL": "N"
  },
  {
    "COMPOUND": "COc1ccc2c(c1)N(C(C)=O)CN1C(=O)CCC21 (stereo unspecified)",
    "ASSIGNED_LABEL": "N"
  },
  {
    "COMPOUND": "C[C@]12CCC(=O)C=C1CC[C@@H]1[C@@H]2[C@@H](O)C[C@@]2(C)[C@H]1CC[C@]2(O)C(=O)CO [HYDROCORTISONE]",
    "ASSIGNED_LABEL": "N"
  },
  {
    "COMPOUND": "CC(C)(C)c1cc(-c2ccc(-c3cc(C(C)(C)C)c(O)c(C(C)(C)C)c3)cc2)cc(C(C)(C)C)c1O",
    "ASSIGNED_LABEL": "N"
  },
  {
    "COMPOUND": "Clc1nc(-c2ccccc2)nc(Cl)c1Cl",
    "ASSIGNED_LABEL": "N"
  },
  {
    "COMPOUND": "C[C@]12CC[C@@H]3c4cc(OCC(F)(F)F)c(O)cc4CC[C@H]3[C@@H]1CC[C@@H]2O",
    "ASSIGNED_LABEL": "N"
  },
  {
    "COMPOUND": "Clc1ccc2c(c1)CC1C[N+]3=C(CCCCC3)C1=C2 (stereo unspecified)",
    "ASSIGNED_LABEL": "N"
  },
  {
    "COMPOUND": "O=C(Nc1ccc(N2C(=O)CSC2c2cccs2)cc1)c1ccc(N2C(=O)CSC2c2cccs2)cc1 (stereo unspecified)",
    "ASSIGNED_LABEL": "N"
  },
  {
    "COMPOUND": "CC1=NN(C(=O)CC(=O)NC(=O)CC(=O)Nc2ccccc2F)C(=O)C1/N=N/c1ccc([N+](=O)[O-])cc1 (stereo unspecified)",
    "ASSIGNED_LABEL": "N"
  },
  {
    "COMPOUND": "N#CC(C#N)=CNC(N)=S",
    "ASSIGNED_LABEL": "N"
  },
  {
    "COMPOUND": "CN(C)Nc1cc(=O)[nH]c(=O)[nH]1",
    "ASSIGNED_LABEL": "N"
  },
  {
    "COMPOUND": "C[C@@H](c1ccccc1)n1c(N)c(C#N)c2ccc([N+](=O)[O-])cc2c1=O",
    "ASSIGNED_LABEL": "N"
  },
  {
    "COMPOUND": "O=C(/C=C/c1ccccc1Cl)c1cccc2ccccc12",
    "ASSIGNED_LABEL": "N"
  },
  {
    "COMPOUND": "CCN(CCCN(CC)C(=O)N[C@@H](Cc1ccccc1)C(=O)NC)C(=O)N[C@@H](Cc1ccccc1)C(=O)NC",
    "ASSIGNED_LABEL": "N"
  },
  {
    "COMPOUND": "CCOc1ccc2c(c1)C(/C(C(Cl)=C(Cl)Cl)=[N+](/[O-])OC(=O)c1ccccc1)=N2",
    "ASSIGNED_LABEL": "N"
  },
  {
    "COMPOUND": "O=C1NC2(NC(=O)C1=O)Nc1ccccc1S2",
    "ASSIGNED_LABEL": "N"
  },
  {
    "COMPOUND": "N#Cc1sc2nc3c(c(-c4ccccc4)c2c1N)CCCC3",
    "ASSIGNED_LABEL": "N"
  },
  {
    "COMPOUND": "CCCCOC(=O)N[C@H]1CCc2cc(OC)c(OC)c(OC)c2-c2ccc(SC)c(=O)cc21",
    "ASSIGNED_LABEL": "Y"
  },
  {
    "COMPOUND": "CC(C)C1CC(CO)(CNc2nc(N)nc(Cl)c2/C=N\\O)C1 (stereo unspecified)",
    "ASSIGNED_LABEL": "N"
  },
  {
    "COMPOUND": "c1ccc(COc2cccc3cccnc23)cc1",
    "ASSIGNED_LABEL": "N"
  },
  {
    "COMPOUND": "CC(C)(C)OC(=O)NCCNC(=O)CN(CC(=O)O)C1CCCCC1N(CC(=O)O)CC(=O)O (stereo unspecified)",
    "ASSIGNED_LABEL": "N"
  },
  {
    "COMPOUND": "Cc1nc(C)c(C(=O)Nc2cccc3c2C(=O)NC3=O)cc1C(=O)Nc1cccc2c1C(=O)NC2=O",
    "ASSIGNED_LABEL": "N"
  },
  {
    "COMPOUND": "OCCCN=C1CCCCC1",
    "ASSIGNED_LABEL": "N"
  }
]
